MEASUREMENT PROTOCOL: Pharmacokinetic study of I-11 in female BALB/c mice (Example 4)
Type: in vivo, Balb/c mouse
CONDITIONS: female, BALB/c, mouse, plasma, po, 50 mg/kg, PO 50 mg/kg, 0.083 hr, read-out: Plasma concentration Individual
Method: Pharmacokinetic Study in Female BALB/c Mice: Balb/c mouse, 17-19 g, 8-10 weeks, female, N=27, purchased from JH Laboratory Animal Co. LTD Fasted overnight and fed at 4 hr post dosing. Animals dosed with sampling at 0.083, 0.25, 0.5, 1, 2, 4, 8, 24 hr post dose. 8 time points. Semi-serial bleeding for plasma only. The animals were restrained manually at the designated time points. Approx. […] Plasma samples were analyzed for I-11 using LC-MS using a calibration curve of known concentrations. […]
QUANTITY NAME: concentration at 0.083 hr
The answer consists of two parts: a number and, after it, its unit.

Sample CC(C)Cc1sc(Nc2ncc(-c3cccs3)cc2C(=O)O)nc1C(C)(C)C — what was its concentration at 0.083 hr?
263 ng/mL

###

MEASUREMENT PROTOCOL: Pharmacokinetic study of I-11 in female BALB/c mice (Example 4)
Format: in vivo, Balb/c mouse
CONDITIONS: mouse, plasma, PO 50 mg/kg
QUANTITY NAME: AUC(0-t)
The answer consists of two parts: a number and, after it, its unit.

Sample CC(C)Cc1sc(Nc2ncc(-c3cccs3)cc2C(=O)O)nc1C(C)(C)C [Compound I-11] — what was its AUC(0-t)?
26400 ng·h/mL

###

MEASUREMENT PROTOCOL: Pharmacokinetic studies of certain compounds in female Balb/c mice (Example 5)
Format: in vivo
CONDITIONS: female, Balb/c, mouse, plasma, iv, 1 mg/kg, I-27 IV 1 mg/kg, 0.25 hr, read-out: Plasma concentration Mean
QUANTITY NAME: concentration at 0.25 h
The answer consists of two parts: a number and, after it, its unit.

Sample CC(C)Cc1sc(Nc2ncc(-c3cccs3)cc2C(=O)O)nc1C1(C)CCCCC1 [Compound I-27] — what was its concentration at 0.25 h?
1140 ng/mL

###

MEASUREMENT PROTOCOL: Pharmacokinetic studies of certain compounds in female Balb/c mice (Example 5)
Assay type: in vivo
CONDITIONS: female, Balb/c, mouse, plasma, po, 30 mg/kg, I-27 PO 30 mg/kg, 0.083 hr, read-out: Plasma concentration Mean
QUANTITY NAME: concentration at 0.083 h (ng/mL)
Expressed in ng/mL, but write only the number.

Sample CC(C)Cc1sc(Nc2ncc(-c3cccs3)cc2C(=O)O)nc1C1(C)CCCCC1 — what was its concentration at 0.083 h?
61.1

###

MEASUREMENT PROTOCOL: Pharmacokinetic studies of certain compounds in female Balb/c mice (Example 5)
Assay type: in vivo
CONDITIONS: female, Balb/c, mouse, plasma, iv, 1 mg/kg, I-8 IV 1 mg/kg, 4 hr, read-out: Plasma concentration Individual
QUANTITY NAME: concentration at 4 hr (ng/mL)
Expressed in ng/mL, but write only the number.

Sample CC(C)Cc1sc(Nc2ncc(-c3cccs3)cc2C(=O)O)nc1C1=CCCC1 — what was its concentration at 4 hr?
10

###

MEASUREMENT PROTOCOL: Pharmacokinetic studies of certain compounds in female Balb/c mice (Example 5)
Type: in vivo
CONDITIONS: mouse, plasma, I-1 PO 30 mg/kg
QUANTITY NAME: Cmax (ng/mL)
Expressed in ng/mL, but write only the number.

Sample CC(C)Cc1sc(Nc2ncc(-c3cccs3)cc2C(=O)O)nc1C1=CCOCC1 — what was its Cmax?
470
